Organism: Rattus norvegicus
Test: Open TG-GATES - Regimen: Single
Type: toxicity, organism-based, Sprague-Dawley
Set-up: regimen Single, gender Male, age 6 weeks
Settings: in vivo, po, 0 mg/kg, 6 h, tissue Plasma, route gavage, dose level Control
Quantity Measured: Cl

# batch size: 5; output Cl per entry
1. C[C@H]1O[C@H](O[C@H]2[C@H](O)[C@@H](O)[C@@H](O[C@H]3[C@H](O)[C@@H](O)C(O)O[C@@H]3CO)O[C@@H]2CO)[C@H](O)[C@@H](O)[C@@H]1N[C@H]1C=C(CO)[C@@H](O)[C@H](O)[C@H]1O (some centres undefined) [ACARBOSE]
2. Cn1cc[nH]c1=S [METHIMAZOLE]
3. CCOC(=O)C(C)(C)Oc1ccc(Cl)cc1 [CLOFIBRATE]
4. C=C(C)[C@H]1Cc2c(ccc3c2O[C@@H]2COc4cc(OC)c(OC)cc4[C@@H]2C3=O)O1 [ROTENONE]
5. O=[N+]([O-])c1ccc(O)c([N+](=O)[O-])c1 [2,4-DINITROPHENOL]

104.6 meq/L
106.4 meq/L
103.2 meq/L
103.4 meq/L
104.8 meq/L

# batch size: 4; output Cl per entry
1. OCCN1CCN(CCCN2c3ccccc3Sc3ccc(C(F)(F)F)cc32)CC1 [FLUPHENAZINE]
2. Cc1ccc2cc3c(ccc4ccccc43)c3c2c1CC3 [3-METHYLCHOLANTHRENE]
3. Cc1cccc(C)c1OCC(C)N (centres undefined) [MEXILETINE]
4. C[C@H]1C(=O)O[C@@H]2CCN3CC=C(COC(=O)[C@](C)(O)[C@]1(C)O)[C@H]23 [MONOCROTALINE]

1. 105.8 meq/L
2. 104.5 meq/L
3. 105.2 meq/L
4. 106.8 meq/L

###

Species on record: Rattus norvegicus
Assay: Open TG-GATES - Regimen: Single
Type: toxicity, organism-based, Sprague-Dawley
Set-up: regimen Single, gender Male, age 6 weeks
Settings: in vivo, po, 0 mg/kg, 6 h, tissue Kidney, route gavage, dose level Control
Quantity Measured: KIDNEY_R
Enter the number, and then the unit.

| Molecule | KIDNEY_R |
| --- | --- |
| O=C1CN(/N=C/c2ccc([N+](=O)[O-])o2)C(=O)N1 [NITROFURANTOIN] | 1 g |
| Cc1cccc(C)c1OCC(C)N (stereo not drawn) [MEXILETINE] | 1 g |

From here, focus on the item given below.
Write down KIDNEY_R measured for item Cc1ccc2cc3c(ccc4ccccc43)c3c2c1CC3 [3-METHYLCHOLANTHRENE]
0.9 g

###

Species: Rattus norvegicus
Assay: Open TG-GATES - Regimen: Daily Repeat
Format: toxicity, organism-based, Sprague-Dawley
Parameters: regimen Daily Repeat, gender Male, age 6 weeks
Conditions: in vivo, po, 0 mg/kg, […], tissue Blood, route gavage, dose level Control, time 14 day
Please provide measured Neu for the entries that follow.
One number for each entry, in %.

| Compound | Neu [%] |
| --- | --- |
| OCCN1CCN(CCCN2c3ccccc3Sc3ccc(C(F)(F)F)cc32)CC1 | 11 |
| CCOC(=O)C(C)(C)Oc1ccc(Cl)cc1 [CLOFIBRATE] | 15 |
| C[C@H]1C(=O)O[C@@H]2CCN3CC=C(COC(=O)[C@](C)(O)[C@]1(C)O)[C@H]23 | 16.8 |
| Cn1cc[nH]c1=S | 15.8 |

From here, focus on the item given below.
Write down Neu measured for item O=C1CN(/N=C/c2ccc([N+](=O)[O-])o2)C(=O)N1
18.8
